B1: FAM189A2 (parent)
chain: GSEAAVIPLDLGCTQVTQDGDIPN

Variants of: B1
assay-explanation: protein stability index of a GFP-peptide fusion (GPS, HEK-293T) (PSI 1-6); higher = more stable;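 also: lentivirally expressed fusions sorted by FACS into six bins by GFP to DsRed ratio, PSI derived from sequencing read proportions per bin multiplied by bin number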
study-conditions: c terminus: a fixed tail appended
# if value of protein stability index reaches 5, tag label 1; if it stays below, tag label 0

Look over these answered cases.
> print(dat)
    mutant.name  group.label
 1          I7W      label 0
 2         I22A      label 1
 3         N24L      label 0
 4         I22H      label 1
 5         T17V      label 1
 6         G20M      label 0
 7          A5I      label 0
 8         Q15I      label 0
 9          A4E      label 1
10         D21R      label 0

Check this variant for protein stability index at or above 5: G20K
label 1

Check this variant for protein stability index at or above 5: T14P
label 1

Check this variant for protein stability index at or above 5: S2K
label 0

Check this variant for protein stability index at or above 5: D21L
label 0

Check this variant for protein stability index at or above 5: D19Y
label 0
